Biological target: human AT1 receptor (Homo sapiens, UniProt P30556)
Construct: expressed in transfected cells; host or cells: CHO-K1
Sequence (P30556 1-359): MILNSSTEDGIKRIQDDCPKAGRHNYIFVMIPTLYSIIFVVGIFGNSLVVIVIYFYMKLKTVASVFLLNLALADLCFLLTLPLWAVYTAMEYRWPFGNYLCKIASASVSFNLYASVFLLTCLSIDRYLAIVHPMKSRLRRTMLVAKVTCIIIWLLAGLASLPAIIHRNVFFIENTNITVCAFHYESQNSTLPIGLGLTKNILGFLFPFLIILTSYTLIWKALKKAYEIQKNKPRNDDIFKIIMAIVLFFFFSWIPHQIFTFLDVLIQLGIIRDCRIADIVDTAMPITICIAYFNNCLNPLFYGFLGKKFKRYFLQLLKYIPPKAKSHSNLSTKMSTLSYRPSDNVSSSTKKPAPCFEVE
Assay: Binding assay using human AT1 receptor-expressing CHO-K1 cell membrane fraction ([125I]-angiotensin II)
Conditions: 22.5 pM [125I]-angiotensin II, 9 μg AT1 membrane, 1 hr room temperature; read-out: AT1 receptor binding inhibitory action (IC50 (nM))
Where a name gives a salt, the structure may show the parent alone.
VALUE_TYPE: IC50

[[record]]
molecule = "CCCCc1nc(CC)n(CC(=O)C(C)(C)C)c(=O)c1Cc1ccc(-c2ccccc2-c2noc(O)n2)cc1 [Example 309, potassium salt]"
study_system = "human AT1 receptor (Homo sapiens, UniProt P30556)"
reported_result = "1.6 nM"

